meta.source: paper PMC3759959

# System: Vero cells
# test: Cytotoxicity by CPE assay in Vero cells
# Assay type: cell-based
# measurement-context: cytotoxicity, Vero cells, 72 h, Reed-Muench method
# Description: The cytotoxicity was evaluated by cytopathic effect (CPE) inhibition assay. Vero cells were seeded into 96-well plates. After cells had been incubated for 24 h at 37 °C in 5% CO2, they were exposed to drugs with two-fold serial dilutions. Untreated Vero cells were used as controls. All cultures were incubated again in 5% CO2 at 37 °C for 72 h. The cells were examined microscopically for the cytotoxicity effects. Then TC50 were calculated by the Reed-Muench method.
# note: exactly 80 µM is not below, so it is Condition not met; use Condition met for TC50 (Antiviral activity against HSV-1 virus section) strictly under it

Exercise: Could you please tell me whether TC50 (Antiviral activity against HSV-1 virus section) recorded for CC1=C2CC[C@@H](C)C[C@]2(OC(=O)c2ccc(Cl)cc2)OC1=O is less than 80 µM?
Solution: Condition met

Exercise: Try this compound next: CC1=C2CC[C@@H](C)C[C@]2(OC(=O)c2ccc(F)cc2)OC1=O
Solution: Condition not met

Exercise: Try this compound next: CC1=C2CC[C@@H](C)C[C@@]2(OC(=O)c2cccs2)OC1=O
Solution: Condition not met

Exercise: Try this compound next: CC1=C2CC[C@@H](C)C[C@@]2(OC(=O)c2cccnc2)OC1=O
Solution: Condition not met

Exercise: Try this compound next: CO[C@@]12C[C@H](C)CCC1=C(C)C(=O)O2
Solution: Condition not met

Exercise: Try this compound next: CC1=C2CC[C@@H](C)C[C@]2(OC(=O)c2cccc(I)c2)OC1=O
Solution: Condition met

Exercise: Try this compound next: CC1=C2CC[C@@H](C)C[C@@]2(OC(=O)c2ccc(C(F)(F)F)cc2)OC1=O
Solution: Condition not met

Exercise: Try this compound next: CC1=C2CC[C@@H](C)C[C@]2(OC(=O)c2ccc([N+](=O)[O-])cc2)OC1=O
Solution: Condition not met

Exercise: Try this compound next: CCO[C@@]12C[C@H](C)CCC1=C(C)C(=O)O2
Solution: Condition not met

Exercise: Try this compound next: CC1=C2CC[C@@H](C)C[C@]2(OC(=O)c2ccccc2)OC1=O
Solution: Condition met

Exercise: Try this compound next: CC(=O)O[C@@]12C[C@H](C)CCC1=C(C)C(=O)O2
Solution: Condition not met

Exercise: Try this compound next: CC1=C2CC[C@@H](C)C[C@]2(OC(=O)c2cccc(F)c2)OC1=O
Solution: Condition not met

Exercise: Try this compound next: CC1=C2CC[C@@H](C)C[C@]2(OC(=O)c2cccc(Cl)c2)OC1=O
Solution: Condition met

Exercise: Try this compound next: CC1=C2CC[C@@H](C)C[C@]2(OC(=O)c2ccc(I)cc2)OC1=O
Solution: Condition met

Exercise: Try this compound next: CCC(=O)O[C@@]12C[C@H](C)CCC1=C(C)C(=O)O2
Solution: Condition met

Exercise: Try this compound next: CC1=C2CC[C@@H](C)C[C@@]2(O)OC1=O
Solution: Condition not met
